Assay: Plasma protein binding in mouse
Format: ADME, cell-free
Details: read-out: PPB (converted)
result type: fraction unbound
No unit in the answer, please; the number alone is enough.

Lab note: Nc1nc(-c2cccc(-n3ccc4cc(C5CC5)cc(F)c4c3=O)c2CO)c2cc(C3=CCN(C4COC4)CC3)[nH]c2n1 [MILREBRUTINIB] gave fraction unbound of 0.008

###

Assay: MRT (0 to last) in mouse at 2 mg/kg, iv
Format: ADME, organism-based
Details: in vivo
result type: MRT last (h)
Hi! Could you send only the number? It should be in h, unit omitted.

Lab note: Nc1nc(-c2cccc(-n3ccc4cc(C5CC5)cc(F)c4c3=O)c2CO)c2cc(C3=CCN(C4COC4)CC3)[nH]c2n1 [MILREBRUTINIB] gave MRT last of 1.36

###

Test: Plasma protein binding in rat
Assay type: ADME, cell-free
Details: read-out: PPB (converted)
result type: fraction unbound
No unit in the answer, please; the number alone is enough.

Lab note: `Nc1nc(-c2cccc(-n3ccc4cc(C5CC5)cc(F)c4c3=O)c2CO)c2cc(C3=CCN(C4COC4)CC3)[nH]c2n1` gave fraction unbound of 0.012

###

Test: AUC (0 to last) in dog at 1 mg/kg, iv
Format: ADME, organism-based, Canis lupus familiaris
Set-up: time 0 - last, dose 1 mg/kg, route iv
Settings: in vivo
result type: AUC(0-t)

Lab note: `Nc1nc(-c2cccc(-n3ccc4cc(C5CC5)cc(F)c4c3=O)c2CO)c2cc(C3=CCN(C4COC4)CC3)[nH]c2n1` gave AUC(0-t) of 734 ng·h/mL

###

Tested on: OCI-Ly10
Assay: Antiproliferative activity against human OCILY10 cells harboring BTK C481S mutant […] gene assessed as reduction in cell viability after 96 hrs
Assay type: functional, cell-based
Conditions: OCI-Ly10, 96 h
result type: pIC50
Just so you know, pIC50 here is -log10 of the concentration in molar units; reply with that number alone.

{"compound": "C=CC(=O)N1CCC[C@@H](n2nc(-c3ccc(Oc4ccccc4)cc3)c3c(N)ncnc32)C1 [IBRUTINIB]", "pIC50": 5.99}

Lab note: Nc1nc(-c2cccc(-n3ccc4cc(C5CC5)cc(F)c4c3=O)c2CO)c2cc(C3=CCN(C4COC4)CC3)[nH]c2n1 [MILREBRUTINIB] gave pIC50 of 7.69

###

Assay: Tmax in rat at 15 mg/kg, po
Format: ADME, organism-based
Settings: in vivo
result type: Tmax (h)
Hi! Could you send only the number? It should be in h, unit omitted.

Lab note: `Nc1nc(-c2cccc(-n3ccc4cc(C5CC5)cc(F)c4c3=O)c2CO)c2cc(C3=CCN(C4COC4)CC3)[nH]c2n1` gave Tmax of 2

###

Assay: Half life in mouse at 15 mg/kg, po
Type: ADME, organism-based
Settings: in vivo
result type: half-life (h)
Hi! Could you send only the number? It should be in h, unit omitted.

Lab note: `Nc1nc(-c2cccc(-n3ccc4cc(C5CC5)cc(F)c4c3=O)c2CO)c2cc(C3=CCN(C4COC4)CC3)[nH]c2n1` gave half-life of 2.25

###

Assay: AUC (0 to last) in dog at 5 mg/kg, po
Assay type: ADME, organism-based, Canis lupus familiaris
Design: time 0 - last, dose 5 mg/kg, route po
Details: in vivo
result type: AUC(0-t) (ng·h/mL)
Hi! Could you send only the number? It should be in ng·h/mL, unit omitted.

Lab note: Nc1nc(-c2cccc(-n3ccc4cc(C5CC5)cc(F)c4c3=O)c2CO)c2cc(C3=CCN(C4COC4)CC3)[nH]c2n1 [MILREBRUTINIB] gave AUC(0-t) of 2490
